Each recorded value in this set is attributed to ChEMBL document CHEMBL4052832.

Quick reference: solubility kinetic at 24 h, 10000 µM of the listed items.
Assay: Kinetic solubility of compound in Prisma HT 6.5 buffer at pH 7.4 at 10 mM incubated in supersonic bath for 30 mins measured after 24 hrs by LC-MS analysis
Format: physicochemical
Settings: pH 6.5, in the assay text read “at pH 6.5” for “at pH 7.4”, read-out: Kinetic_solubility
# output: bare number, implied unit µg/mL

Below are worked cases with known answers.
>  <smiles_representation>
CCCCOC(=O)C1=C[C@H](O)[C@@H](NC(C)=O)[C@H]([C@H](O)[C@H](O)Cn2cc(-c3ccc(-c4ccccc4)cc3)nn2)O1

>  <solubility kinetic at 24 h, 10000 µM (µg/mL)>
3.2

$$$$
>  <smiles_representation>
CCCOC(=O)C1=C[C@H](O)[C@@H](NC(C)=O)[C@H]([C@H](O)[C@H](O)Cn2cc(-c3ccc(-c4ccccc4)cc3)nn2)O1

>  <solubility kinetic at 24 h, 10000 µM (µg/mL)>
1.7

$$$$

Let's switch to this compound now.
Task item: Please report the measured solubility kinetic at 24 h, 10000 µM for CCOC(=O)C1=C[C@H](O)[C@@H](NC(C)=O)[C@H]([C@H](O)[C@H](O)Cn2cc(-c3ccc(-c4ccccc4)cc3)nn2)O1
Reply: 3.2

---

Target: UniProtKB Q8WWR8
Sequence (Q8WWR8 whole entry, the tested form may be a part): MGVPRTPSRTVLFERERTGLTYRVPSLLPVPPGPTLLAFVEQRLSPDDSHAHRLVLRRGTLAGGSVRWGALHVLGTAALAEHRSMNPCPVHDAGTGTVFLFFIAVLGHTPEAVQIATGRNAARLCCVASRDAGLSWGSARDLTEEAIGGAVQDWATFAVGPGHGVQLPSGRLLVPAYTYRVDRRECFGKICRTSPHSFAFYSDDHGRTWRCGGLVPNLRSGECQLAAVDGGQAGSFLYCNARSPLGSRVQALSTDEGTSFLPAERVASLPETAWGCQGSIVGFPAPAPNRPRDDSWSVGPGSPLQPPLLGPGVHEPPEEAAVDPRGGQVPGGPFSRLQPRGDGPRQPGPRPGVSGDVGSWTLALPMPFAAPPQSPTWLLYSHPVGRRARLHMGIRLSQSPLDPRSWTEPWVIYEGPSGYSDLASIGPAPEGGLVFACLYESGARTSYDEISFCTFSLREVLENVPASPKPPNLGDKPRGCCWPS
Assay: Inhibition of human N-terminal MBP-fused NEU4 expressed in Escherichia coli using 4MU-NANA as substrate preincubated for 15 mins followed by substrate addition measured after 30 mins by fluorescence based assay
Quick reference: IC50 of the listed items.

>  <smiles_representation>
CC(=O)N[C@H]1[C@H]([C@H](O)[C@H](O)Cn2cc(-c3ccc(C(=O)O)cc3)nn2)OC(C(=O)O)=C[C@@H]1NC(=N)N

>  <tested_target>
UniProtKB Q8WWR8

>  <value_measured>
24 µM

$$$$
>  <smiles_representation>
CC(=O)N[C@H]1[C@H]([C@H](O)[C@H](O)Cn2cc(-c3ccc(C(=O)O)cc3)nn2)OC(C(=O)O)=C[C@@H]1N

>  <tested_target>
UniProtKB Q8WWR8

>  <value_measured>
> 500 µM

$$$$
>  <smiles_representation>
CC(=O)N[C@H]1[C@H]([C@H](O)[C@H](O)Cn2cc(-c3ccc(C(=O)O)cc3)nn2)OC(C(=O)O)=C[C@@H]1O

>  <tested_target>
UniProtKB Q8WWR8

>  <value_measured>
3 µM

$$$$
>  <smiles_representation>
CC(=O)N[C@H]1[C@H]([C@H](O)[C@H](O)Cn2cc(-c3ccc(-c4ccccc4)cc3)nn2)OC(C(=O)O)=C[C@@H]1O

>  <tested_target>
UniProtKB Q8WWR8

>  <value_measured>
0.52 µM

$$$$

Let's switch to this compound now.
Task item: Please report the measured IC50 for CCCCC(=O)NC[C@@H](O)[C@@H](O)[C@@H]1OC(C(=O)O)=C[C@H](O)[C@H]1NC(C)=O
Reply: 220 µM

---

Molecular target: UniProt:Q8WWR8
Test: Inhibition of human N-terminal MBP-fused NEU4 expressed in Escherichia coli using GM3 as substrate preincubated for 15 mins followed by substrate addition measured after 30 mins by fluorescence based assay
assay_endpoint: pIC50
pIC50 is defined as minus the log10 of a concentration measured in mol/L.

Task item: Give pIC50; test system UniProt:Q8WWR8; compound CC(=O)N[C@H]1[C@H]([C@H](O)[C@H](O)Cn2cc(-c3ccc(-c4ccccc4)cc3)nn2)OC(C(=O)O)=C[C@@H]1O
Reply: 5.43

---

Quick reference: IC50 of the listed items.
Target: Sialidase-3 (Homo sapiens, UniProt Q9UQ49)
Assay: Inhibition of human N-terminal MBP-fused NEU3 expressed in Escherichia coli using 4MU-NANA as substrate preincubated for 15 mins followed by substrate addition measured after 30 mins by fluorescence based assay

>  <smiles_representation>
CC(=O)N[C@H]1[C@H]([C@H](O)[C@H](O)Cn2cc(-c3ccc(-c4ccccc4)cc3)nn2)OC(C(=O)O)=C[C@@H]1NC(=N)N

>  <assay_endpoint>
IC50

>  <value_measured>
580 nM

$$$$
>  <smiles_representation>
CC(=O)N[C@H]1[C@H]([C@H](O)[C@H](O)Cn2cc(-c3ccc(-c4ccccc4)cc3)nn2)OC(C(=O)O)=C[C@@H]1O

>  <assay_endpoint>
IC50

>  <value_measured>
700 nM

$$$$
>  <smiles_representation>
CC(=O)N[C@H]1[C@H]([C@H](O)[C@H](O)Cn2cc(-c3ccc(C(=O)O)cc3)nn2)OC(C(=O)O)=C[C@@H]1NC(=N)N

>  <assay_endpoint>
IC50

>  <value_measured>
610 nM

$$$$
>  <smiles_representation>
CC(=O)N[C@H]1[C@H]([C@H](O)[C@H](O)Cn2cc(-c3ccc(C(=O)O)cc3)nn2)OC(C(=O)O)=C[C@@H]1O

>  <assay_endpoint>
IC50

>  <value_measured>
1100 nM

$$$$
>  <smiles_representation>
CC(=O)N[C@H]1[C@H]([C@H](O)[C@H](O)Cn2cc(-c3ccc(C(=O)O)cc3)nn2)OC(C(=O)O)=C[C@@H]1N

>  <assay_endpoint>
IC50

>  <value_measured>
> 500000 nM

$$$$

Task item: Please report the measured IC50 for CC(=O)N[C@H]1[C@H]([C@H](O)[C@H](O)Cn2cc(-c3ccc(C(=O)O)cc3)nn2)OC(C(=O)O)=C[C@@H]1NC(=O)NCCC(=O)O
Reply: > 500000 nM

---

Assay: Octanol-water partition coefficient, log D of compound at pH 7.4 at 10 uM after 2 hrs by LC-MS based shake flask analysis
Type: physicochemical
Quick reference: logD at 2 h, 10 µM of the listed items.
Keep it simple and answer with nothing but the number.

>  <smiles_representation>
CCOC(=O)C1=C[C@H](O)[C@@H](NC(C)=O)[C@H]([C@H](O)[C@H](O)Cn2cc(-c3ccc(-c4ccccc4)cc3)nn2)O1

>  <assay_endpoint>
logD at 2 h, 10 µM

>  <value_measured>
3.4

$$$$

Let's switch to this molecule now.
Task item: Please report the measured logD at 2 h, 10 µM for COC(=O)C1=C[C@H](O)[C@@H](NC(C)=O)[C@H]([C@H](O)[C@H](O)Cn2cc(-c3ccc(-c4ccccc4)cc3)nn2)O1
Reply: 2.3

---

Test: Octanol-water partition coefficient, log D of compound at pH 7.4 at 10 uM after 2 hrs by LC-MS based shake flask analysis
Assay type: physicochemical
Quick reference: logD at 2 h, 10 µM of the listed items.

>  <smiles_representation>
CCCCC(=O)NC[C@@H](O)[C@@H](O)[C@@H]1OC(C(=O)O)=C[C@H](O)[C@H]1NC(C)=O

>  <value_measured>
-1

$$$$
>  <smiles_representation>
CC(=O)N[C@H]1[C@H]([C@H](O)[C@H](O)Cn2cc(-c3ccc(CO)cc3)nn2)OC(C(=O)O)=C[C@@H]1O

>  <value_measured>
< -1.5

$$$$
>  <smiles_representation>
CC(=O)N[C@H]1[C@H]([C@H](O)[C@H](O)Cn2cc(-c3ccc(-c4ccccc4)cc3)nn2)OC(C(=O)O)=C[C@@H]1NC(=N)N

>  <value_measured>
1.2

$$$$

Let's switch to this compound now.
Task item: Please report the measured logD at 2 h, 10 µM for CCCCOC(=O)C1=C[C@H](O)[C@@H](NC(C)=O)[C@H]([C@H](O)[C@H](O)Cn2cc(-c3ccc(-c4ccccc4)cc3)nn2)O1
Reply: 3.8

---

Assay: Apparent permeability from basolateral side to apical side in human Caco2 cells at 62.5 uM after 30 mins by LC-MS analysis
Assay type: ADME, cell-based
Conditions: Caco-2
assay_endpoint: Papp B→A at 0.5 h, 62.5 µM (×10⁻⁶ cm/s)
# output: bare number, implied unit ×10⁻⁶ cm/s

Task item: Please report the measured Papp B→A at 0.5 h, 62.5 µM for CCCCOC(=O)C1=C[C@H](O)[C@@H](NC(C)=O)[C@H]([C@H](O)[C@H](O)Cn2cc(-c3ccc(-c4ccccc4)cc3)nn2)O1
Reply: 2.2

---

Protein target, amino acids: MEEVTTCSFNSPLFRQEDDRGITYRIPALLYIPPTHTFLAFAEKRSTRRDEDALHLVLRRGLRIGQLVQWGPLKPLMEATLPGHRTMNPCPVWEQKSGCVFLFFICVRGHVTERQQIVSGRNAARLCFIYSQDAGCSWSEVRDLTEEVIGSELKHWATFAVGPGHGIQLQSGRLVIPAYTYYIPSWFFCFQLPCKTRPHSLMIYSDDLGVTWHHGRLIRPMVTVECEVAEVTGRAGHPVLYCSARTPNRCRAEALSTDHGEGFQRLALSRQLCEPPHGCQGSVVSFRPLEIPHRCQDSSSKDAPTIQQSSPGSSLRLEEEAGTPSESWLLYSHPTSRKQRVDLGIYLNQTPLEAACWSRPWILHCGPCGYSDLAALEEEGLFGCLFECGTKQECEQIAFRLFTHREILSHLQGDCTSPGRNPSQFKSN
assay_endpoint: pKi
pKi is defined as minus the log10 of a concentration measured in mol/L.

>  <smiles_representation>
CC(=O)N[C@H]1[C@H]([C@H](O)[C@H](O)Cn2cc(-c3ccc(-c4ccccc4)cc3)nn2)OC(C(=O)O)=C[C@@H]1NC(=N)N

>  <pKi>
6.49

$$$$

Let's switch to this compound now.
Task item: Please report the measured pKi for CC(=O)N[C@H]1[C@H]([C@H](O)[C@H](O)Cn2cc(-c3ccc(-c4ccccc4)cc3)nn2)OC(C(=O)O)=C[C@@H]1O
Reply: 6.55
